Source of measurements: paper PMC3074162

target-or-system: T1, ParB 65-139 (RHH domain) (Leifsonia xyli subsp. cynodontis …, UniProt Q6EEF9 65-139)
T1 sequence: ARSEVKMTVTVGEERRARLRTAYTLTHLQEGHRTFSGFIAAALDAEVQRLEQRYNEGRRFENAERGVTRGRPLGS
test-method-notes: ITC

{"binder": "R4-18 (dsDNA) DNA 1: GGAAAAGCCAGAAACAGT DNA 2: ACTGTTTCTGGCTTTTCC", "Kd (nM)": 60}
{"binder": "R3-18 (dsDNA) DNA 1: GGAATAGGTGGAAAAGCC DNA 2: GGCTTTTCCACCTATTCC", "Kd (nM)": 37}
